# Tested on: Human venous whole blood (IFN-γ)
# assay_protocol: Human whole blood IFN-γ assay
# Assay type: cell-based
# measurement_setup: Homo sapiens, 24 h, human whole blood, anti-CD3 plus anti-CD28, 24 hours; read-out: INFg Whole Blood Normalized Agonist EC50
endpoint: EC50 (µM)
Respond numerically; units are µM and should not be typed.

Sample answers from the record:
{"compound": "Cn1c(=O)cc(N2CCC(Oc3nccc4cccnc34)CC2)c2nc(C#N)ccc21", "tested_system": "Human venous whole blood (IFN-γ)", "endpoint": "EC50", "endpoint_result": 20}
{"compound": "CC(C)c1cccc(O[C@@H]2CCN(c3cc(=O)n(C)c4ccc(C#N)nc34)C[C@H]2C)c1", "tested_system": "Human venous whole blood (IFN-γ)", "endpoint": "EC50", "endpoint_result": 5.8}
{"compound": "CC(C)c1ccc(O[C@H]2CCN(c3cc(=O)n(C)c4ccc(C#N)nc34)C[C@H]2C)cc1 (single isomer, unassigned) [Example 177]", "tested_system": "Human venous whole blood (IFN-γ)", "endpoint": "EC50", "endpoint_result": 3.5}

Record request: EC50 value, item C[C@@H]1CN(c2cc(=O)n(C)c3ccc(C#N)nc23)CC[C@H]1Oc1ccc(OC(F)(F)F)cc1 (single isomer, unassigned) [Example 80] 2.4

Next up: "Cn1c(=O)c(C#N)c(N2CCC(Oc3ccc(C(C)(C)C)cc3)CC2)c2nc(Cl)ccc21" 7.6

"Cc1cc(OC2CCN(c3cc(=O)n(C)c4ccc(C#N)nc34)CC2)nc(C)n1" ? 20

---

# pIC50 per entry
# tested_system: human DGKζ (Homo sapiens (Human), UniProt Q13574)
# Sequence (Q13574 whole entry, looked up): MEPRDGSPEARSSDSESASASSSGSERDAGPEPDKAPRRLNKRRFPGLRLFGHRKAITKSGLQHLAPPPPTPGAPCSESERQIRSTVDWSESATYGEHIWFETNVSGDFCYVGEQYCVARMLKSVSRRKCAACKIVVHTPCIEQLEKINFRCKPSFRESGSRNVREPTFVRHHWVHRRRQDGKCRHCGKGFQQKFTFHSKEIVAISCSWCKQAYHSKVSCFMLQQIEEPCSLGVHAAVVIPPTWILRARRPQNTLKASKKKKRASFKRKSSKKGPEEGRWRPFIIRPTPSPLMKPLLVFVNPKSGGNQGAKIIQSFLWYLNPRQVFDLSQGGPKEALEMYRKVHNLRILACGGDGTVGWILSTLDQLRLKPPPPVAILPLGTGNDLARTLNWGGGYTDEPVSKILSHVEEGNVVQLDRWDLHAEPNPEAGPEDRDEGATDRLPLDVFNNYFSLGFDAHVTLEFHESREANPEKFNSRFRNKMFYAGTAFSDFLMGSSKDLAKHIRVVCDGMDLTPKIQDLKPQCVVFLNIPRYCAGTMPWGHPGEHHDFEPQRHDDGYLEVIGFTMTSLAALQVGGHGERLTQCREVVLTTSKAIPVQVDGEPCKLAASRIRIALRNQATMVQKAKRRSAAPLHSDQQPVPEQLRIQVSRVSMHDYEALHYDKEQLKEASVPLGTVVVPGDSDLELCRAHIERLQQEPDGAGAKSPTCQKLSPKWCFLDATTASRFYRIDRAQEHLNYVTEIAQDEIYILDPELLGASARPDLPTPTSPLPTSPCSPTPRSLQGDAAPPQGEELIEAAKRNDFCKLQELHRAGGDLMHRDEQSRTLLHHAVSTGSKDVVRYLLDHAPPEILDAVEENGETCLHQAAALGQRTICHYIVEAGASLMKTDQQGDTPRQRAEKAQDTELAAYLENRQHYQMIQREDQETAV
# assay_protocol: biochemical
# Type: biochemical
# measurement_setup: liposome (LIPGLO) assay; read-out: DGKζ LIPGLO IC50
Quick note: pIC50 means taking -log10 of the concentration in moles per liter.

{"compound": "CC[C@@H]1CN(c2cc(=O)n(C)c3ccc(C#N)nc23)CC[C@H]1Oc1ccc(OC(C)(C)C)cc1 (single isomer, unassigned) [Example 159]", "endpoint_result": 5.64}
{"compound": "C[C@@H]1CN(c2cc(=O)n(C)c3ccc(C#N)nc23)CC[C@H]1Oc1ccc(C2CCCC2)cc1 (single isomer, unassigned) [Example 102]", "endpoint_result": 4.08}
{"compound": "C[C@@H]1CN(c2cc(=O)n(C)c3ccc(C#N)nc23)CC[C@H]1Oc1ccc(C2CCCC2)cc1 [Example 100]", "endpoint_result": 4.55}
{"compound": "Cn1c(=O)c(C#N)c(N2CCC(Oc3ccccc3C#N)CC2)c2nc(Cl)ccc21 [Example 43]", "endpoint_result": 4.57}
{"compound": "Cn1c(=O)c(C#N)c(N2CCC(Oc3ccccc3F)CC2)c2nc(Cl)ccc21 [Example 44]", "endpoint_result": 4.23}

Value lookup for pIC50; key = Cn1c(=O)cc(N2CCC(Oc3ccc4c(c3)CCCC4)CC2)c2nc(C#N)ccc21 [Example 61] 5.33

// query: C[C@@H]1CN(c2cc(=O)n(C)c3ccc(C#N)nc23)CC[C@H]1Oc1cccc(C2CC2)c1 [Example 91] 4.85

---

# Lookup of reported pIC50 keyed by entry
# tested_system: full length human DGKζ (Homo sapiens (Human), UniProt Q13574)
# Sequence (Q13574 whole entry, looked up): as above
# assay_protocol: In vitro DGK inhibition assay, Method B (DGKζ LIPGLO, extruded liposomes)
# Format: biochemical
# measurement_setup: liposome (LIPGLO) assay; read-out: DGKζ LIPGLO IC50
Recall that pIC50 is obtained by taking minus log10 of the concentration measured in molar.

Example cases with answers are listed next.
{"molecule": "CCO[C@H]1CN(c2nc(=O)n(C)c3ccc(C#N)nc23)CC[C@@H]1Oc1ccc(C(F)(F)F)cc1 [Example 405]", "endpoint_result": 4.85}
{"molecule": "CCO[C@H]1CN(c2cc(=O)n(C)c3ccc(C#N)nc23)CC[C@@H]1Oc1ncc(OC(C)C)cn1 [Example 379]", "endpoint_result": 5.51}
{"molecule": "CCO[C@H]1CN(c2cc(=O)n(C)c3ccc(C#N)nc23)CC[C@@H]1OCc1cccc(C(F)(F)F)c1 (single isomer, unassigned) [Example 382]", "endpoint_result": 3.89}

// lookup pIC50 | system=full length human DGKζ (Homo sapiens (Human), UniProt Q13574) | key= COCCO[C@@H]1CN(c2cc(=O)n(C)c3ccc(C#N)nc23)CC[C@H]1Oc1cccc(C(F)(F)F)c1 [Example 390] 5.72

Same thing, different molecule: "Cn1c(=O)cc(N2CC[C@@H](Oc3cccc(C(F)(F)F)c3)[C@H](OCC3CC3)C2)c2nc(C#N)ccc21" 7.01

Same lookup for CCO[C@H]1CN(c2cc(=O)n(C)c3ccc(C#N)nc23)CC[C@@H]1Oc1cnc(OC(C)C)cn1 [Example 378] , please. 5.28

Now the same for CC(C)O[C@@H]1CN(c2cc(=O)n(C)c3ccc(C#N)nc23)CC[C@H]1Oc1cccc(C(F)(F)F)c1 (relative stereo) [Example 396] 5.44

How about CN(C)CCO[C@@H]1CN(c2cc(=O)n(C)c3ccc(C#N)nc23)CC[C@H]1Oc1cccc(C(F)(F)F)c1 [Example 386] ? 4.38

Same question, CCO[C@H]1CN(c2nc(=O)n(C)c3ccc(C#N)nc23)CC[C@@H]1Oc1ccccc1 (relative stereo) [Example 403] this time 5.28

Same question, CCO[C@H]1CN(c2cc(=O)n(C)c3ccc(C#N)nc23)CC[C@@H]1OCc1cccc(C(F)(F)F)c1 [Example 381] this time 5.13

Also "CCO[C@H]1CN(c2cc(=O)n(C)c3ccc(C#N)nc23)CC[C@@H]1Oc1ccc(OC(C)C)nn1" ? 4.85

What about this molecule? CCO[C@H]1CN(c2nc(=O)n(C)c3ccc(C#N)nc23)CC[C@@H]1Oc1ccc(C(F)(F)F)cc1 [Example 404] 5.92

---

# tested_system: DGKα (Homo sapiens (Human), UniProt P23743)
# Sequence (P23743 whole entry, looked up): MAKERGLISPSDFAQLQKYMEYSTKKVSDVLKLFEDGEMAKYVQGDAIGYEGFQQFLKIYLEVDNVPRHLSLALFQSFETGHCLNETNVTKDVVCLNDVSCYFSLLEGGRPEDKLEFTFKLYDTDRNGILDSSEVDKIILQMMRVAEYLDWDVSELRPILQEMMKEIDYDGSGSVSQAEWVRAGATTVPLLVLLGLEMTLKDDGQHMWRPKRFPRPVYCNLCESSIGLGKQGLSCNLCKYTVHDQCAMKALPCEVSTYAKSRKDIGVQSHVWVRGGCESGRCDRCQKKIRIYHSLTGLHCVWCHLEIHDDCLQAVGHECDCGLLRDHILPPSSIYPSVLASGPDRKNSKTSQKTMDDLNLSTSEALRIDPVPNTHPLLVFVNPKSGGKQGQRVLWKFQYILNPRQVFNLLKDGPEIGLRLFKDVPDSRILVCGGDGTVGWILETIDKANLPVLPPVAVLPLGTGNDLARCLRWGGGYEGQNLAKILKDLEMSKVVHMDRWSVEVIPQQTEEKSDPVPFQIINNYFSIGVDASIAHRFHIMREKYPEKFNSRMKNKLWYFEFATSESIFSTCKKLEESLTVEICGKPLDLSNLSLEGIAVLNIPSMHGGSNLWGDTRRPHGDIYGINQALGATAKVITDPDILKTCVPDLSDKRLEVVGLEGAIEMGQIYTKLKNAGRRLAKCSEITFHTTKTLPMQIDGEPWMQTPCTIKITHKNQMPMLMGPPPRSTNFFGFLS
# assay_protocol: biochemical
# Assay type: biochemical
# measurement_setup: liposome (LIPGLO) assay; read-out: DGKα LIPGLO IC50
endpoint: IC50
Please append the unit to your numeric answer.

Take a look at these entries with their results.
{"compound": "Cn1c(=O)c(C#N)c(N2CCC(Oc3ccc(OC(F)(F)F)c(F)c3)CC2)c2nc(Cl)ccc21", "IC50": "1100 nM"}
{"compound": "Cc1cc(OC2CCN(c3cc(=O)n(C)c4ccc(C#N)nc34)CC2)ccc1C(C)C", "IC50": "240 nM"}

# lookup: IC50 of "Cc1cc(OC2CCN(c3cc(=O)n(C)c4ccc(C#N)nc34)CC2)nc(C)n1" 12000 nM

Further, for "CCCCCc1ccc(OC2CCN(c3cc(=O)n(C)c4ccc(C#N)nc34)CC2)cc1" ? 1500 nM

Next entry: C[C@@H]1CN(c2cc(=O)n(C)c3ccc(C#N)nc23)CC[C@@H]1Oc1cccc(C2CC2)c1 [Example 181] 61 nM

Then what about the compound Cc1ccc(O[C@@H]2CCN(c3cc(=O)n(C)c4ccc(C#N)nc34)C[C@H]2C)cc1 (single isomer, unassigned) [Example 120] ? 350 nM

Try this compound too: "COc1ccccc1OC1CCN(c2c(C#N)c(=O)n(C)c3ccc(Cl)nc23)CC1" 290 nM

---

# tested_system: human DGKζ (Homo sapiens (Human))
# assay_protocol: biochemical
# Type: biochemical
# measurement_setup: liposome (LIPGLO) assay; read-out: DGKζ LIPGLO IC50
endpoint: pIC50
Give only the number. pIC50 is defined as minus log10 of concentration in molar units.

// worked examples, pIC50 included
{"compound": "Cn1c(=O)c(C#N)c(N2CCC(Oc3ccc(F)c(F)c3)CC2)c2nc(Cl)ccc21 [Example 12]", "pIC50": 4.57}
{"compound": "Cn1c(=O)c(C#N)c(N2CCC(Oc3ccc(C(C)(C)C)cc3)CC2)c2nc(Cl)ccc21 [Example 15]", "pIC50": 5.13}
{"compound": "Cn1c(=O)cc(N2CCC(Oc3nncc4ccccc34)CC2)c2nc(C#N)ccc21 [Example 75]", "pIC50": 4.74}

Find pIC50 (human DGKζ (Homo sapiens (Human))) for the entry CCC(C)(C)c1ccc(O[C@H]2CCN(c3cc(=O)n(C)c4ccc(C#N)nc34)C[C@H]2C)cc1 (single isomer, unassigned) [Example 170] 5.96

Another compound to check: CC(C)c1ccc(O[C@H]2CCN(c3cc(=O)n(C)c4ccc(C#N)nc34)C[C@H]2C)cc1 [Example 176] 5.89

Ok, now Cc1ccc(OC2CCN(c3c(C#N)c(=O)n(C)c4ccc(Cl)nc34)CC2)cc1Cl [Example 40] 5.05

# iterate: Cc1cc(F)cc(OC2CCN(c3c(C#N)c(=O)n(C)c4ccc(Cl)nc34)CC2)c1 [Example 28] 5.27

What about this compound? Cn1c(=O)c(C#N)c(N2CCC(Oc3cccc(OC(F)(F)F)c3)CC2)c2nc(Cl)ccc21 [Example 13] 3.62

Reference for the values: patent US11964973B2
